STUDY_SYSTEM: T1, CD70 on cells (CHO-CD70, JVM-3, U266, Raji, THP-1, T cells) (human, UniProt P32970 1-193)
T1 construct: whole, on cells; also called cell-surface CD70
T1 sequence (looked up): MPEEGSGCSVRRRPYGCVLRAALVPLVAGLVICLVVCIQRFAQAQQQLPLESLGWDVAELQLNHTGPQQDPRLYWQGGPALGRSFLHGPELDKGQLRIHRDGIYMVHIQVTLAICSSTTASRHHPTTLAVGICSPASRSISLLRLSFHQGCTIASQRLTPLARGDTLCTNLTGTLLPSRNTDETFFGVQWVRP
MEASUREMENT_DESCRIPTION: 1.25 µg/mL scFv on U266 cells
# binarize cell binding: threshold 10000 inclusive, high side 1 (yes), low side 0 (no)

BINDER	LABEL_VALUE
43-TC4-VII-C04 (scFv, His-tagged) scFv: QVQLLESGGGLVQPGRSLRLSCAASGFTFDDYAMHWVRQAPGKGLEWVSGISWNSGSIGYADSVKGRFTISRDNAKNSLYLQMNSLRAEDTAVYYCARDLVYYYGMDVWGQGTTVTVSSGGSGGSGGSGGSQSVLTQPPSVSGTPGQGVSISCSGSSSNIGWKTVNWYQQVPGMAPKLLIYSDNQRPSGVPDRFSGSKSATSASLAISGLQSEDEADYYCASWDASVNAPVFGGGTKLTVL	1 (yes)
35-TC6-VII-A09 (scFv, His-tagged) scFv: EVQLVQSGGGVVQPGRSLRLSCAASGFTFSSYGMHWVRQAPGKGLEWVAVISYDGSNKYYADSVKGRFTISRDNSKNTLYLQMNSLRAEDTAVYYCAKAGAPPHYYYGMDVWGQGTTVTVSSGGSGGSGGSGGSQSALTQPASVSGSPGQSITISCTGTSSDVGGYDYVSWYQQHPGKAPKLMIYEVTDRPSGIPNRFSGSKSGNTASLTISGLQAEDEADYYCSSYTYTSTLEVFGGGTKVTVL	1 (yes)
14-TC4-III-A04 (scFv, His-tagged) scFv: QVQLVQSGAEVKKPGASVKVSCKASGYTFTGYYMNWVRQAPGQGLEWMAWINPNTGDTNYAQKFQGRVTMTRDTSINTAYIELSRLTSDDTAVYYCARVGDYYDRSGYYRHDAFDIWGQGTMVTVSSGGSGGSGGSGGSSSELTQDPAVSVALGQTVRITCQGDSLRSYYASWYQQKPGQAPVLVIYGKNNRPSGIPDRFSGSSSGNTASLTITGAQAEDEADYYCQAWDSSTGVFGGGTKVTVL	1 (yes)
50-TC7-III-A11 (scFv, His-tagged; also called 1985) scFv: QVQLVQSGAEVKRPGASVKVSCKASGYTFTSYYMHWVRQAPGQGLEWMGIINPSGGSTSYAQKFQGRVTMTRDTSTSTVYMELSSLRSEDTAVYYCAIEPGYCSGGSCYPDAFDIWGQGTTVTVSSGGSGGSGGSGGSQSVLTQPPSASGTPGQRVTISCSGSSSNIGSDYVYWYQRVPGTAPKLLIYRDNQRPSGVPDRFSGSKSGTSASLAISGLRSDDEADYYCAAWDDSLSGWVFGGGTKVTVL	1 (yes)
56-TC7-VI-H08 (scFv, His-tagged) scFv: QMQLVQSGAEVKKPGASVKVSCKASGYTFTSYYMHWVRQAPGQGLEWMGIINPSGGSTSYAQKFQGRVTMTRDTSTSTAYMELRSLRSDDTAVYYCARGWETNDAFDIWGQGTMVTVSSGGSGGSGGSGGSQSVLTQPPSVSGAPGQKVTISCSGSNSNVGNHYLSWYQHLPGTAPRLLIFDNNKRPSGIPDRFSGSKSGASATLDITGLQTGDEADYFCGTWDSRLNVWVFGGGTKLTVL	0 (no)
38-TC7-V-G06 (scFv, His-tagged) scFv: QMQLVQSGAEVKKPGSSVKVSCKASGGTFSSYAISWVRQAPGQGLEWMGWISAYNGNTNYAQKLQGRVTMTTDTSTSTAYMELRSLRSDDTAVYYCARDDYWGQGTLVTVSSGGSGGSGGSGGSSYELTQPPSVSVAPGKTARITCSGDVLGENYADWYQQKPGQAPELVIYEDSERYPGIPERFSGSTSGNTTTLTISRVLTEDEADYYCLSGDEDNRVFGGGTKLTVL	1 (yes)

Threshold query (cell binding >= 10000) on 40-TC7-VI-F11 (scFv, His-tagged) scFv: EVQLVESGGGVVQPGRSLRLSCAASGFTFSSYAMHWVRQAPGKGLEWVAVISYDGSNKYYADSVKGRFTISRDNSKNTLYLQMNSLRAEDTAVYYCARDGYGFDYWGQGTLVTVSSGGSGGSGGSGGSSYELTQSPSVSVAPGQTARITCGGNNIGSKSVHWYQQKPGQAPVLVVYDDSDRPSGIPERFSGSNSGNTATLTISRVEAGDEADYYCQVWDSSTPYVFGTGTKLTVL
1 (yes)

Threshold query (cell binding >= 10000) on 54-TC7-V-D10 (scFv, His-tagged) scFv: QVQLQQWGAGLLKPSETLSLTCAVYGGSFSGYYWSWIRQPPGKGLEWIGEINHSGSTNYNPSLKSRVTISVDTSKNQFSLKLSSVTAADTAVYYCARGGYRSYWYFDLWGRGTLVTVSSGGSGGSGGSGGSQSALTQPASVSGSPGQSITISCTGTSSDVGGYNSVSWYQHHPGKAPKLMIYDVSDRPSGVSDRFSGSKSGNTASLTISGLQAEDEADYYCSSYAGSNNVVFGGGTKVTVL
0 (no)

Threshold query (cell binding >= 10000) on 16-TC4-I-C11 (scFv, His-tagged) scFv: QVQLVQSGAEVKKPGSSVKVSCKASGGTFSSYAISWVRQAPGQGLEWMGWISAYNGNTNYAQKLQGRVTMTTDTSTSTAYMELRSLRSDDTAVYYCARVTPPGWLGNMDVWGKGTTVTVSSGGSGGSGGSGGSSYELMQSPSVSVAPGQTARITCGGRDIGSKSVHWYQQKPGQAPVLVVYDDSDRPSGIPERLSGSNFGNEATLTISRVEAGDEGDYFCQVWDSSTDVVFGGGTKVTVL
1 (yes)

Threshold query (cell binding >= 10000) on 58-TC7-III-G11 (scFv, His-tagged) scFv: EVQLVQSGGGVVQPGRSLRLSCAASGFTFSSYAMHWVRQAPGKGLEWVAVISYDGSNKYYADSVKGRFTISRDNSKNTLYLQMNSLRAEDTAVYYCATNSGYDSDYYYGMDVWGQGTTVTVSSGGSGGSGGSGGSQSVLTQPPSMSGAPGQRVTISCTGSSSNIGAGYDVHWYQHLPGTGPKLLIHGNTNRPSGVPDRFSGSKSGTSASLAITGLQAEDEADYYCQSYDNSLGGYVVFGGGTKVTVL
1 (yes)
